- Tested system: Neu5Ac(a2-3)Gal(b1-4)GlcNAc
- Test summary: glycan array binding signal (z-score within array); higher = stronger binding
- Measurement context: glycan notation: IUPAC condensed, linker removed
About 410 targets per protein were measured; listed, in parts, are those with the strongest signals and a random draw of the rest.
Reported metric: glycan array binding signal (z-score)

INSERT INTO assay_data (binder, value) VALUES
  ('SJA (Sophora japonica) (protein) FLGLFNSGGYSSSYQIVAVEFDTYINEWDPKTRHIGIDINSINSTKTVTWGWENGEVAIVLISYKAATETLTVSLTYPSSQTSYILSAAVDLKSILPEWVRIGF', -0.241),
  ('CLL-1 (Homo sapiens) (protein) MWIDFFTYSSMSEEVTYADLQFQNSSEMEKIPEIGKFGEKAPPAPSHVWRPAALFLTLLCLLLLIGLGVLASMFHVTLKIEMKKMNKLQNISEELQRNISLQLMSNMNISNKIRNLSTTLQTIATKLCRELYSKEQEHKCKPCPRRWIWHKDSCYFLSDDVQTWQESKMACAAQNASLLKINNKNALEFIKSQSRSYDYWLGLSPEEDSTRGMRVDNIINSSAWVIRNAPDLNNMYCGYINRLYVQYYHCTYKKRMICEKMANPVQLGSTYFREA', -0.14),
  ('Intelectin-1a (Mus musculus) (protein) AEWSHPQFEKAEENLDTNRWGNSFFSSLPRSCKEIKQEHTKAQDGLYFLRTKNGVIYQTFCDMTTAGGGWTLVASVHENNMRGKCTVGDRWSSQQGNRADYPEGDGNWANYNTFGSAEAATSDDYKNPGYFDIQAENLGIWHVPNKSPLHNWRKSSLLRYRTFTGFLQHLGHNLFGLYKKYPVKYGEGKCWTDNGPALPVVYDFGDARKTASYYSPSGQREFTAGYVQFRVFNNERAASALCAGVRVTGCNTEHHCIGGGGFFPEGNPVQCGDFASFDWDGYGTHNGYSSSRKITEAAVLLFYR', -1.12),
  ('Tap1 (Sordaria macrospora), Q50IV4 (protein) MSHHHHHHHHYTLHLRLINDTSDTLTLVEQTSWWGKNTIWSQVRSTGVHVLSMAASGSSGMLRFQTSKGDFFAVAVGVHNYKRWCDVLVDTADEAPLTKLHPKYYDDKDAKYQALWAQASEFEAKSKSGKTVRIKFYQADGNVLRATVEYL', -0.251),
  ('Gal 8 (Mus musculus), Q9JL15 (protein) MGGSHHHHHHGMASMLSLNNLQNIIYNPIIPYVGTITEQLKPGSLIVIRGHVPKDSERFQVDFQLGNSLKPRADVAFHFNPRFKRSSCIVCNTLTQEKWGWEEITYDMPFRKEKSFEIVFMVLKNKFQVAVNGRHVLLYAHRISPEQIDTVGIYGKVNIHSIGFRFSSASALPHTLGDLQSMETSALGLTQINRENIQKPGKLQLSLPFEARLNASMGPGRTVVIKGEVNTNARSFNVDLVAGKTRDIALHLNPRLNVKAFVRNSFLQDAWGEEERNITCFPFSSGMYFEMIIYCDVREFKVAINGVHSLEYKHRFKDLSSIDTLSVDGDIRLLDVRSW', -0.517);
